# Tested on: Rattus norvegicus
# RUN DESCRIPTION: Antihypertensive effect in spontaneously hypertensive rats 10 mg/kg oral administration
# Type: functional
REPORTED METRIC: Change in BP (mmHg)

>>> meas_value("CN1C(=O)c2c(nc(Cc3ccc(-c4ccccc4)cc3)n2Cc2ccccc2)N2CC3(CCCC3)N=C12")
-33
>>> meas_value("Cc1nc2c([nH]1)C(=O)N(C)C1=N[C@@H]3CCC[C@@H]3N12")
-35
>>> meas_value("O=C(O)C1CCN(c2nc(NCc3ccc4c(c3)OCO4)c3cc(Cl)ccc3n2)CC1")
-7
>>> meas_value("CN1C(=O)c2c(nc(C#Cc3ccccc3)n2Cc2ccccc2)N2C1=N[C@@H]1CCC[C@@H]12")
-2
>>> meas_value("CCCCCCc1nc2c([nH]1)N1C(=N[C@@H]3CCC[C@@H]31)N(C)C2=O")
-56
>>> meas_value("CN1C(=O)c2c(nc(Cc3ccc(-c4ccccc4)cc3)n2Cc2ccccc2)N2C1=N[C@@H]1CCC[C@@H]12")
-2
>>> meas_value("CN1C(=O)c2[nH]c(Cc3ccccc3)nc2N2C1=N[C@@H]1CCC[C@@H]12")
-47
>>> meas_value("CN1C(=O)c2c(nc(-c3ccccc3)n2Cc2ccccc2)N2CC3(CCCC3)N=C12")
-10
>>> meas_value("CN1C(=O)c2[nH]c(CC3CCCC3)nc2N2CC3(CCCC3)N=C12")
-48
>>> meas_value("CN1C(=O)c2[nH]c(CC3CCCC3)nc2N2C1=N[C@@H]1CCC[C@@H]12")
-27

Just for reference, ChEMBL document CHEMBL1130088 is where these values come from.
